List of IC50 values.
target or system: human TLR9 (Homo sapiens)
Sequence (Q9NR96 26-1032): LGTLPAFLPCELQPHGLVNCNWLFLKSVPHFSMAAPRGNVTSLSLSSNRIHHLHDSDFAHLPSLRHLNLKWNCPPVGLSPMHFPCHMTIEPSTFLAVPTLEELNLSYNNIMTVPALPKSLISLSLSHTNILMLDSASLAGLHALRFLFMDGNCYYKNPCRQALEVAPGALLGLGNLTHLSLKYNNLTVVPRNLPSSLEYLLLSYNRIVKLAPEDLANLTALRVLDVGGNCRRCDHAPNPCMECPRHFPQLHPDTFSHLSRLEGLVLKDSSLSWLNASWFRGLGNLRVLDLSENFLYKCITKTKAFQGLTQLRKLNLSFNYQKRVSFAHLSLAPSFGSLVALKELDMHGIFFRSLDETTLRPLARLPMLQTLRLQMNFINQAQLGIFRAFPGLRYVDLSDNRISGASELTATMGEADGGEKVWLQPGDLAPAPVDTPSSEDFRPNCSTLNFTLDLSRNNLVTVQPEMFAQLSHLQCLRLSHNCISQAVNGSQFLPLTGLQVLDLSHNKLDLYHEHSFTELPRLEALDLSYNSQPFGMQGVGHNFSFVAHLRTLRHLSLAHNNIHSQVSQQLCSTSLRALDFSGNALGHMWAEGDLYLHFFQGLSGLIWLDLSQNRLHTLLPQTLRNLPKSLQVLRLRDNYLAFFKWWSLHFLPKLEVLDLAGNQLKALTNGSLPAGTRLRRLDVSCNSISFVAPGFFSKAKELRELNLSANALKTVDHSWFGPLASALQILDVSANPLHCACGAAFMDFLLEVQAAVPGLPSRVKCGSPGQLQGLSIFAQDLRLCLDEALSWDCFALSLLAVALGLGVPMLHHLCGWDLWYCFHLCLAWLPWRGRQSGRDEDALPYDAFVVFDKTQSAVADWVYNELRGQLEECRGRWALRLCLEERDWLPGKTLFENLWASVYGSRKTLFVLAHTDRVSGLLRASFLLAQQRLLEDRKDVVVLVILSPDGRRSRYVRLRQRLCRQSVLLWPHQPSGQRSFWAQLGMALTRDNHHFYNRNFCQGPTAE
protocol summary: TLR9 inhibition reporter assay (HEK-Blue cells, SEAP reporter, ODN2006 stimulation)
measurement conditions: HEK-Blue cells overexpressing human TLR9, SEAP reporter, ODN2006 5 nM

In [3]: df
Out[3]:
                                        smi           target_or_system          observed
0  Cc1nc2ccc(-c3[nH]c4ccc(C5CCNCC5)cc4c3C(C)C)cc2o1  human TLR9 (Homo sapiens)  1000 to 50000 nM
1  CC(C)c1c(-c2cnc3c(cnn3C)c2)[nH]c2ccc(C3CCNCC3)cc12  human TLR9 (Homo sapiens)    100 to 1000 nM
2  CNC(=O)CN1CCC(c2ccc3[nH]c(-c4ccc5nccn5c4)c(C(C)C)c3c2)CC1  human TLR9 (Homo sapiens)  1000 to 50000 nM
3  CC(C)c1c(-c2cn(C)c3ncccc23)[nH]c2ccc(C3CCN(Cc4cnn[nH]4)CC3)cc12  human TLR9 (Homo sapiens)  1000 to 50000 nM
4  COc1cc2[nH]c(-c3ccnc4[nH]ncc34)c(C(C)C)c2cc1C1CCNCC1  human TLR9 (Homo sapiens)  1000 to 50000 nM
5  CNC(=O)CN1CCC(c2ccc3[nH]c(-c4ccc(C)n5ncnc45)c(C(C)C)c3c2)CC1  human TLR9 (Homo sapiens)  1000 to 50000 nM
6  Cc1nnn2ccc(-c3[nH]c4ccc(C5CCN(C6CCS(=O)(=O)CC6)CC5)cc4c3C(C)C)cc12  human TLR9 (Homo sapiens)  1000 to 50000 nM
7  Cc1cn2c(C)cc(-c3[nH]c4ccc(C5CCN(CC(=O)N(C)C)CC5)cc4c3C(C)C)cc2n1  human TLR9 (Homo sapiens)    100 to 1000 nM

In: Report IC50 for CCN(CC)CCN1CCC(c2ccc3[nH]c(-c4ccnc5[nH]ncc45)c(C(C)C)c3c2)CC1 please.
Out: 100 to 1000 nM

In: Again, but for CC(C)c1c(-c2ccnc3[nH]ncc23)[nH]c2ccc(C3CCN(C(=O)CN4CCN(c5ccncc5)CC4)CC3)cc12
Out: 100 to 1000 nM
